Molecular target: PARD3_3, Q8TEW0
Sequence (Q8TEW0 582-685): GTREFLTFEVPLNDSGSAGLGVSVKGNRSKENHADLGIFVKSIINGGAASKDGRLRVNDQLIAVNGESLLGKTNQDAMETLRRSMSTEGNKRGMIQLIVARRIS
Assay: holdup assay
Parameters: key: below the threshold = too weak to quantify, mostly under pKd 3.1 to 4
Details: plain residues with an end cap or a label only (N-terminal biotin on a linker: ado-ado)
Reported Endpoint: pKd

Binder	Readout Value
HYPASPDSWV [CTNND2, Q9UQB3]	3.92
EKPIDSETKM [SLC1A3, P43003]	below the threshold
QLGSPTADLA [SIPA1, Q96FS4]	below the threshold
GVHSNDHSVV [LPAR1, Q92633]	below the threshold
